The origin of these recorded values is paper PMC7363035.

experiment: Log D in octanol/PBS pH 7.4; type: physicochemical
Quantity Name: logD
No unit in the answer, only the number.

input: Please report the recorded logD for c1cc([C@H]2CC[C@]3(CC2)OO[C@]2(O3)C3CC4CC(C3)CC2C4)ccc1OCCN1CCOCC1 .
output: 5.81

----------
assay: Mouse pharmacokinetics after a single oral dose; type: in vivo; settings: male, CD-1, mouse, plasma, po, 50 mg/kg
Quantity Name: Tmax (h)
Could you give me the number in h? Just the number is fine.

input: Please report the recorded Tmax for c1cc([C@H]2CC[C@]3(CC2)OO[C@]2(O3)C3CC4CC(C3)CC2C4)ccc1OCCN1CCOCC1 [OZ439, artefenomel] .
output: 2

----------
experiment: Mouse pharmacokinetics after a single oral dose; format: in vivo; settings: male, CD-1, mouse, plasma, po, 50 mg/kg
Quantity Name: AUC(0-t)

input: Please report the recorded AUC(0-t) for c1cc([C@H]2CC[C@]3(CC2)OO[C@]2(O3)C3CC4CC(C3)CC2C4)ccc1OCCN1CCOCC1 .
output: 52600 ng·h/mL
